Reference source: the NIST ThermoML archive (doi:10.1021/je9010486)

The following molecules are shown together with reported mass density values.
# protocol: cn = amount concentration of the nth substance listed, in mol/dm3
# assayConditions: 313.15 K; 101 kPa; Liquid; c1 = 1
Numbers after ± are expanded uncertainties.
Record the result as number plus unit.

Examples with answers:
molecule	mass density
OC[C@@H](O)[C@H](O)[C@@H](O)CO [xylitol] + O	1041.45 ± 2 kg/m3
OC[C@@H](O)[C@@H](O)[C@H](O)[C@@H](O)CO [D-sorbitol] + O	1054.72 ± 2.2 kg/m3
OC[C@@H](O)[C@@H](O)CO [meso-1,2,3,4-butanetetrol] + O	1027.24 ± 1.8 kg/m3

Here's the next entry for you.
Prompt: Please indicate mass density recorded for OC[C@@H](O)[C@@H](O[C@H]1O[C@H](CO)[C@@H](O)[C@H](O)[C@H]1O)[C@H](O)[C@@H](O)CO [4-O-α-D-glucopyranosyl-D-glucitol] + O
Completion: 1084.06 ± 2.7 kg/m3

====

The following compounds are shown together with reported mass density values.
# protocol: cn = amount concentration of the nth substance listed, in mol/dm3
# assayConditions: 293.15 K; 101 kPa; Liquid; c1 = 0.9
// return numeric value only (unit: kg/m3, not printed)

Prompt: Please indicate mass density recorded for OC[C@@H](O)[C@@H](O)CO [meso-1,2,3,4-butanetetrol] + O
Completion: 1031.9

Prompt: Please indicate mass density recorded for OC[C@@H](O)[C@@H](O)[C@H](O)[C@@H](O)CO [D-sorbitol] + O
Completion: 1056.16

Prompt: Please indicate mass density recorded for OC[C@@H](O)[C@@H](O[C@H]1O[C@H](CO)[C@@H](O)[C@H](O)[C@H]1O)[C@H](O)[C@@H](O)CO [4-O-α-D-glucopyranosyl-D-glucitol] + O
Completion: 1080.81

Prompt: Please indicate mass density recorded for OC[C@@H](O)[C@H](O)[C@@H](O)CO [xylitol] + O
Completion: 1043.84

====

The following compounds are shown together with reported viscosity values.
# protocol: cn = amount concentration of the nth substance listed, in mol/dm3
# assayConditions: 293.15 K; 101 kPa; Liquid; c1 = 0.7
// return numeric value only (unit: mPa·s, not printed)

Prompt: Please indicate viscosity recorded for OC[C@@H](O)[C@@H](O)[C@H](O)[C@@H](O)CO [D-sorbitol] + O
Completion: 1.394

Prompt: Please indicate viscosity recorded for OC[C@@H](O)[C@@H](O[C@H]1O[C@H](CO)[C@@H](O)[C@H](O)[C@H]1O)[C@H](O)[C@@H](O)CO [4-O-α-D-glucopyranosyl-D-glucitol] + O
Completion: 2.173

====

# protocol: cn = amount concentration of the nth substance listed, in mol/dm3
# assayConditions: 323.15 K; 101 kPa; Liquid; c1 = 0.7
readoutLabel: mass density (kg/m3)
// return numeric value only (unit: kg/m3, not printed)

Examples with answers:
compound	experimentalValue
OC[C@@H](O)[C@H](O)[C@@H](O)CO [xylitol] + O	1022.25
OC[C@@H](O)[C@@H](O)CO [meso-1,2,3,4-butanetetrol] + O	1012.27
OC[C@@H](O)[C@@H](O[C@H]1O[C@H](CO)[C@@H](O)[C@H](O)[C@H]1O)[C@H](O)[C@@H](O)CO [4-O-α-D-glucopyranosyl-D-glucitol] + O	1053.2
OC[C@@H](O)[C@@H](O)[C@H](O)[C@H](O)CO [mannitol] + O	1030.32

Prompt: Please indicate mass density recorded for OC[C@@H](O)[C@@H](O)[C@H](O)[C@@H](O)CO [D-sorbitol] + O
Completion: 1031.44

====

# protocol: cn = amount concentration of the nth substance listed, in mol/dm3
# assayConditions: 293.15 K; 101 kPa; Liquid; c1 = 0.6
readoutLabel: mass density (kg/m3)
// return numeric value only (unit: kg/m3, not printed)

compound	mass density / kg/m3
OC[C@@H](O)[C@@H](O[C@H]1O[C@H](CO)[C@@H](O)[C@H](O)[C@H]1O)[C@H](O)[C@@H](O)CO [4-O-α-D-glucopyranosyl-D-glucitol] + O	1054.05
OC[C@@H](O)[C@@H](O)[C@H](O)[C@H](O)CO [mannitol] + O	1035.17
OC[C@@H](O)[C@H](O)[C@@H](O)CO [xylitol] + O	1028.66
OC[C@@H](O)[C@@H](O)[C@H](O)[C@@H](O)CO [D-sorbitol] + O	1036.94

Here's the next entry for you.
Prompt: Please indicate mass density recorded for OC[C@@H](O)[C@@H](O)CO [meso-1,2,3,4-butanetetrol] + O
Completion: 1019.38

====

# protocol: cn = amount concentration of the nth substance listed, in mol/dm3
# assayConditions: 323.15 K; 101 kPa; Liquid; c1 = 1
The following compounds are shown together with reported viscosity values.
// return numeric value only (unit: mPa·s, not printed)

Examples with answers:
compound	experimentalValue
OC[C@@H](O)[C@@H](O)[C@H](O)[C@@H](O)CO [D-sorbitol] + O	0.8541
OC[C@@H](O)[C@@H](O)CO [meso-1,2,3,4-butanetetrol] + O	0.7251
OC[C@@H](O)[C@@H](O[C@H]1O[C@H](CO)[C@@H](O)[C@H](O)[C@H]1O)[C@H](O)[C@@H](O)CO [4-O-α-D-glucopyranosyl-D-glucitol] + O	1.385

Prompt: Please indicate viscosity recorded for OC[C@@H](O)[C@H](O)[C@@H](O)CO [xylitol] + O
Completion: 0.7896

====

# protocol: cn = amount concentration of the nth substance listed, in mol/dm3
# assayConditions: 303.15 K; 101 kPa; Liquid; c1 = 0.6
readoutLabel: mass density (kg/m3)
// return numeric value only (unit: kg/m3, not printed)

Examples with answers:
compound	mass density / kg/m3
OC[C@@H](O)[C@@H](O)[C@H](O)[C@H](O)CO [mannitol] + O	1032.18
OC[C@@H](O)[C@@H](O)[C@H](O)[C@@H](O)CO [D-sorbitol] + O	1033.82
OC[C@@H](O)[C@@H](O[C@H]1O[C@H](CO)[C@@H](O)[C@H](O)[C@H]1O)[C@H](O)[C@@H](O)CO [4-O-α-D-glucopyranosyl-D-glucitol] + O	1051.92
OC[C@@H](O)[C@@H](O)CO [meso-1,2,3,4-butanetetrol] + O	1016.67

Prompt: Please indicate mass density recorded for OC[C@@H](O)[C@H](O)[C@@H](O)CO [xylitol] + O
Completion: 1025.38

====

# protocol: cn = amount concentration of the nth substance listed, in mol/dm3
# assayConditions: 303.15 K; 101 kPa; Liquid; c1 = 1
readoutLabel: viscosity (mPa·s)
// return numeric value only (unit: mPa·s, not printed)

molecule	viscosity [mPa·s]
OC[C@@H](O)[C@H](O)[C@@H](O)CO [xylitol] + O	1.223
OC[C@@H](O)[C@@H](O)CO [meso-1,2,3,4-butanetetrol] + O	1.137
OC[C@@H](O)[C@@H](O[C@H]1O[C@H](CO)[C@@H](O)[C@H](O)[C@H]1O)[C@H](O)[C@@H](O)CO [4-O-α-D-glucopyranosyl-D-glucitol] + O	2.132

Here's the next entry for you.
Prompt: Please indicate viscosity recorded for OC[C@@H](O)[C@@H](O)[C@H](O)[C@@H](O)CO [D-sorbitol] + O
Completion: 1.329

====

# protocol: cn = amount concentration of the nth substance listed, in mol/dm3
# assayConditions: 313.15 K; 101 kPa; Liquid; c1 = 0.2
readoutLabel: mass density (kg/m3)
// return numeric value only (unit: kg/m3, not printed)

Prompt: Please indicate mass density recorded for OC[C@@H](O)[C@@H](O)[C@H](O)[C@@H](O)CO [D-sorbitol] + O
Completion: 1004.89

Prompt: Please indicate mass density recorded for OC[C@@H](O)[C@@H](O)CO [meso-1,2,3,4-butanetetrol] + O
Completion: 999.19

Prompt: Please indicate mass density recorded for OC[C@@H](O)[C@@H](O[C@H]1O[C@H](CO)[C@@H](O)[C@H](O)[C@H]1O)[C@H](O)[C@@H](O)CO [4-O-α-D-glucopyranosyl-D-glucitol] + O
Completion: 1012.7

Prompt: Please indicate mass density recorded for OC[C@@H](O)[C@H](O)[C@@H](O)CO [xylitol] + O
Completion: 1002.18

Prompt: Please indicate mass density recorded for OC[C@@H](O)[C@@H](O)[C@H](O)[C@H](O)CO [mannitol] + O
Completion: 1004.5

====

# protocol: cn = amount concentration of the nth substance listed, in mol/dm3
# assayConditions: 323.15 K; 101 kPa; Liquid; c1 = 0.9
The following compounds are shown together with reported viscosity values.
// return numeric value only (unit: mPa·s, not printed)

compound	viscosity, mPa·s
OC[C@@H](O)[C@@H](O)CO [meso-1,2,3,4-butanetetrol] + O	0.7057

Prompt: Please indicate viscosity recorded for OC[C@@H](O)[C@@H](O[C@H]1O[C@H](CO)[C@@H](O)[C@H](O)[C@H]1O)[C@H](O)[C@@H](O)CO [4-O-α-D-glucopyranosyl-D-glucitol] + O
Completion: 1.242

Prompt: Please indicate viscosity recorded for OC[C@@H](O)[C@H](O)[C@@H](O)CO [xylitol] + O
Completion: 0.7618

Prompt: Please indicate viscosity recorded for OC[C@@H](O)[C@@H](O)[C@H](O)[C@@H](O)CO [D-sorbitol] + O
Completion: 0.8178
